# Tested on: HCT-116
# PROTOCOL_DETAILS: Cytotoxicity against human HCT116 cells assessed as growth inhibition after 72 hrs by MTT assay
# Assay type: functional
# CONDITION_INFO: HCT-116, 72 h
Collected GI50 values appear next to each entry.

COMPOUND	UNIT_SPEC	VALUE_QUALIFIER	GI50
C[C@@H]1CC[C@]2(C(=O)O)CC[C@]3(C)C(=CC[C@@H]4[C@@]5(C)C[C@@H](O)[C@@H](O)C(C)(C)[C@@H]5CC[C@]43C)[C@@H]2[C@]1(C)O	µM	=	22
COc1cc(/C=C/C(=O)O[C@H]2[C@H](O)C[C@]3(C)[C@H]4CC=C5[C@@H]6CC(C)(C)CC[C@]6(C(=O)O)CC[C@@]5(C)[C@]4(C)CC[C@H]3C2(C)C)ccc1O	µM	=	22
C[C@H]1[C@H](C)CC[C@]2(C(=O)O)CC[C@]3(C)C(=CC[C@@H]4[C@@]5(C)CCC(=O)C(C)(C)[C@@H]5CC[C@]43C)[C@H]12	µM	=	5.3
C=C1C(=O)O[C@H]2C3=CC[C@@H]4C(C)(C)C(=O)CC[C@@]4(C)[C@@H]3CC[C@@H]12	µM	=	31
CC1(C)CC[C@]2(C(=O)O)CC[C@]3(C)C(=CC[C@@H]4[C@@]5(C)CC[C@H](O)C(C)(C)[C@@H]5CC[C@]43C)[C@@H]2C1	µM	>	100
CC(C)c1cc2c(cc1O)[C@@]1(C)CCC[C@](C)(CO)[C@@H]1CC2	µM	=	51
C[C@H]1[C@H](C)CC[C@]2(C(=O)O)CC[C@]3(C)C(=CC[C@@H]4[C@@]5(C)C[C@@H](O)[C@H](O)C(C)(C)[C@@H]5CC[C@]43C)[C@H]12	µM	>	100
CC(C)c1ccc(O)c2c1CC[C@H]1[C@@](C)(C(=O)O)CCC[C@]21C	µM	=	31
C[C@@H]1CC[C@]2(C(=O)O)CC[C@]3(C)C(=CC[C@@H]4[C@@]5(C)C[C@@H](O)OCC(C)(C)[C@@H]5CC[C@]43C)[C@@H]2[C@]1(C)O	µM	=	23
C=C1C(=O)O[C@H]2C3=CC[C@@H]4[C@](C)(CO)CCC[C@@]4(C)[C@@H]3CC[C@@H]12	µM	=	42
C[C@H]1[C@H](C)CC[C@]2(CO)CC[C@]3(C)C(=CC[C@@H]4[C@@]5(C)CC[C@H](O)C(C)(C)[C@@H]5CC[C@]43C)[C@H]12	µM	=	37
C[C@@H]1CC[C@@]23CC[C@]4(C)[C@@](C=C[C@@H]5[C@@]6(C)CC[C@H](O)C(C)(C)[C@@H]6CC[C@]54C)(OC2=O)C3[C@H]1C (some centres not stated)	µM	>	100
